Data origin, for the record: patent US10947220B2

Target: PCSK9/LDLR interaction (His-tagged PCSK9, recombinant LDLR-AB domain) (Homo sapiens)
Construct: purchased Circulex
Sequence (Q8NBP7 153-692): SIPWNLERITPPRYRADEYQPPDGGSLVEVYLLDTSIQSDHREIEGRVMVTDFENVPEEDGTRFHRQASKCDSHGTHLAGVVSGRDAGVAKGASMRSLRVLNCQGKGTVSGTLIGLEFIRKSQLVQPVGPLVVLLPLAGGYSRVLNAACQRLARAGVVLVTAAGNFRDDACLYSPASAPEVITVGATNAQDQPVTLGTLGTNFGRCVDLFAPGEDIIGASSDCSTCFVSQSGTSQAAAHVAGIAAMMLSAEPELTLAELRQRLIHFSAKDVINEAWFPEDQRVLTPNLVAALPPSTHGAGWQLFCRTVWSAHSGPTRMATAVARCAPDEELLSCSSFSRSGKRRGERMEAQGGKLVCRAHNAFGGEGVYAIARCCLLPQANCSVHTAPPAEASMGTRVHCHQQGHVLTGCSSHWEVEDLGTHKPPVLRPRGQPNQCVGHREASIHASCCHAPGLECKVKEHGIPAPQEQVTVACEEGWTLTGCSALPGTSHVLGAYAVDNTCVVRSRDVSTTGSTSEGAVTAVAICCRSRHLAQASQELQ
Sequence (Q8NBP7 31-152 partner limits assumed): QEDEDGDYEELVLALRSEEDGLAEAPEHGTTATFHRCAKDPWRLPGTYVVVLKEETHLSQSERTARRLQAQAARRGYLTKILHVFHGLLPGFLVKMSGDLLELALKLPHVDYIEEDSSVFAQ
Assay: PCSK9/LDLR binding in vitro ELISA (Circulex kit)
Settings: Table 1 / FIG. 11, SAR around SBC-115,337; read-out: IC-50
RESULT_TYPE: log10(IC50) (log10 of the value in nM)
Record value = log10 of IC50 given in nM.

> print(dat)
                    structure.smiles.string  result.type  experimental.value
1  O=C(Nc1ccc(-c2ncco2)cc1)c1ccc(NC(=O)c2cc3ccccc3o2)cc1  log10(IC50)                3.38

Enter recorded log10(IC50) with PCSK9/LDLR interaction (His-tagged PCSK9, recombinant LDLR-AB domain) (Homo sapiens) for COc1cccc2c(C)c(C(=O)Nc3ccc(C(=O)Nc4ccc(-c5ncco5)cc4)cc3)oc12 here. 3.34

Enter recorded log10(IC50) with PCSK9/LDLR interaction (His-tagged PCSK9, recombinant LDLR-AB domain) (Homo sapiens) for CN(C(=O)c1ccc(NC(=O)c2cc3ccccc3o2)cc1)c1ccc(-c2nc3ccccc3o2)cc1 here. 3.91

Enter recorded log10(IC50) with PCSK9/LDLR interaction (His-tagged PCSK9, recombinant LDLR-AB domain) (Homo sapiens) for O=C(Nc1ccc(-c2nc3ccccc3o2)cc1)c1ccc(NC(=O)c2cc3ccccc3o2)cc1 here. 2.78

Enter recorded log10(IC50) with PCSK9/LDLR interaction (His-tagged PCSK9, recombinant LDLR-AB domain) (Homo sapiens) for NC(=O)c1ccc(NC(=O)c2ccc(NC(=O)c3cc4ccccc4o3)cc2)cc1 here. 3.23

Enter recorded log10(IC50) with PCSK9/LDLR interaction (His-tagged PCSK9, recombinant LDLR-AB domain) (Homo sapiens) for COc1ccc2oc(C(=O)Nc3ccc(C(=O)Nc4ccc(-c5nc6ccccc6o5)cc4)cc3)c(C)c2c1 here. 3.20

Enter recorded log10(IC50) with PCSK9/LDLR interaction (His-tagged PCSK9, recombinant LDLR-AB domain) (Homo sapiens) for O=C(Nc1ccc(C2=NCCO2)cc1)c1ccc(NC(=O)c2cc3ccccc3o2)cc1 here. 3.04
